pKi: −log10 of the molar value.
Collected set of pKi measured with Metabotropic glutamate receptor 5 (Rattus norvegicus, UniProt P31424) across studies.
Sequence (P31424 whole entry): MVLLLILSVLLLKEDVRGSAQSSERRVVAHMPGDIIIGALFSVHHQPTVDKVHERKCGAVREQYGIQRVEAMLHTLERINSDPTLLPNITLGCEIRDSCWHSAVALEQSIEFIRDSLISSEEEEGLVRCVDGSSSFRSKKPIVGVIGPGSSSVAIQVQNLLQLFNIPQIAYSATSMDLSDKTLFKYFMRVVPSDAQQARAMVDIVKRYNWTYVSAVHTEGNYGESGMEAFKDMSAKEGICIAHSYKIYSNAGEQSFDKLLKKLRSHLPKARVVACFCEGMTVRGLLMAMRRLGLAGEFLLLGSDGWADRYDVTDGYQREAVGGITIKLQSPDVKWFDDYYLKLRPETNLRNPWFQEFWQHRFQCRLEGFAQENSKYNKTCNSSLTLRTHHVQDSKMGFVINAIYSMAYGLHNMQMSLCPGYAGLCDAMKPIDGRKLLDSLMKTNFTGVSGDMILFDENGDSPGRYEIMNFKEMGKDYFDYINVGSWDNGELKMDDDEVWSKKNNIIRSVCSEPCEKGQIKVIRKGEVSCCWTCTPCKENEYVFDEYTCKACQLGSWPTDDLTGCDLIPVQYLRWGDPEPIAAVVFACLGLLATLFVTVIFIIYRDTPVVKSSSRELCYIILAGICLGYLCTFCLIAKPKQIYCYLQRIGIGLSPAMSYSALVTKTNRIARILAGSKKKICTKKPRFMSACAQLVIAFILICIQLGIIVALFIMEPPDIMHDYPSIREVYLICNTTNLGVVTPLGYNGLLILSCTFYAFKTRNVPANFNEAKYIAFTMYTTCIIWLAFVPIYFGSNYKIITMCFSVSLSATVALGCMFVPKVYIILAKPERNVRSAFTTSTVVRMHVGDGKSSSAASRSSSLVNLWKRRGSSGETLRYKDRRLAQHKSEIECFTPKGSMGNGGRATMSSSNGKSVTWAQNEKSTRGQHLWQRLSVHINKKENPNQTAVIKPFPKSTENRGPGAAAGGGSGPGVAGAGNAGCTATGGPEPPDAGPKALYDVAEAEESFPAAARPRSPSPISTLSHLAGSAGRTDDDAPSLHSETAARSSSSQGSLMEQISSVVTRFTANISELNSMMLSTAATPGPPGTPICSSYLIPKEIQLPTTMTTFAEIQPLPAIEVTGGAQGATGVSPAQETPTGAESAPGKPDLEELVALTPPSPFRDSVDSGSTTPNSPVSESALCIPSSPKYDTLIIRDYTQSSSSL
Give true (1) when the value for pKi is at least 8. Give false (0) when it is less.

These recorded examples may help you get a feel for the data.
mol | study.target | discrete.label
O=C(Nc1cc(-c2ccccc2)nn1-c1ccccc1)c1ccncc1 | Metabotropic glutamate receptor 5 (Rattus norvegicus, UniProt P31424) | false (0)
Cc1ccc2nc(Cl)c(/C=C/C(=O)c3cccs3)cc2c1 | Metabotropic glutamate receptor 5 (Rattus norvegicus, UniProt P31424) | false (0)
N#Cc1cccc(S(=O)(=O)c2sc3ncccc3c2-c2ccc(Cl)cc2)c1 | Metabotropic glutamate receptor 5 (Rattus norvegicus, UniProt P31424) | true (1)
N#Cc1cc(C#N)cc(-n2nnc(-c3ccccn3)n2)c1 | Metabotropic glutamate receptor 5 (Rattus norvegicus, UniProt P31424) | false (0)
Cc1cccc(C#CC=C2CCN(c3ncc(-c4ccccc4)cc3C#N)CC2)n1 | Metabotropic glutamate receptor 5 (Rattus norvegicus, UniProt P31424) | true (1)

Turning to the following compound.
Say whether N#Cc1cc(F)cc(S(=O)(=O)c2sc3nc(Cl)ccc3c2-c2ccc(F)cc2)c1 shows pKi of 8 or more.
false (0)
